Species on record: Rattus norvegicus
Experiment: PD2 value was calculated as -log value of the concentration of the test compound to inhibit 60 mM KCl-induced contractions to 50% expressed as calcium antagonistic activity
Type: functional
Parameter: PD2. Scope: all listed entries.

Consider the reported PD2 for these compounds:
>>> df
                                   compound  readout_type  observed
0  OC(CSc1ccccc1)CN1CCN(CCCC(c2ccc(F)cc2)c2ccc(F)cc2)CC1 (stereo not given)           PD2      6.79
1  COC(CSc1ccccc1)CN1CCN(CCCC(c2ccc(F)cc2)c2ccc(F)cc2)CC1 (stereo not given)           PD2      6.69
2  CC(=O)N(CC(O)CN1CCN(CCCC(c2ccc(F)cc2)c2ccc(F)cc2)CC1)c1ccccc1 (stereo not given)           PD2      5.98
3  OC(CSCc1ccccc1)CN1CCN(CCCC(c2ccc(F)cc2)c2ccc(F)cc2)CC1 (stereo not given)           PD2      6.93
4  CC(=O)OC(CNc1ccccc1)CN1CCN(CCCC(c2ccc(F)cc2)c2ccc(F)cc2)CC1 (stereo not given)           PD2      6.38
5  OC(CNc1ccccc1)CN1CCN(CCCC(c2ccc(F)cc2)c2ccc(F)cc2)CC1 (stereo not given)           PD2       6.7
6  Fc1ccc(C(c2ccc(F)cc2)N2CCN(C/C=C/c3ccccc3)CC2)cc1 [FLUNARIZINE]           PD2      5.98
7  CN(CC(O)CN1CCN(CCCC(c2ccc(F)cc2)c2ccc(F)cc2)CC1)c1ccccc1 (stereo not given)           PD2      5.83

The measured PD2 associated with OC(CNCc1ccccc1)CN1CCN(CCCC(c2ccc(F)cc2)c2ccc(F)cc2)CC1 (stereo not given) reads 5.85

The measured PD2 associated with CC(=O)OC(CSc1ccccc1)CN1CCN(CCCC(c2ccc(F)cc2)c2ccc(F)cc2)CC1 (stereo not given) reads 6.55
